Some molecules, each annotated with its measured inhibition.
biological target: Cytoplasmic tyrosine-protein kinase BMX (Homo sapiens) (UniProt P51813); details: at 0.1 µM
Sequence (P51813 whole entry): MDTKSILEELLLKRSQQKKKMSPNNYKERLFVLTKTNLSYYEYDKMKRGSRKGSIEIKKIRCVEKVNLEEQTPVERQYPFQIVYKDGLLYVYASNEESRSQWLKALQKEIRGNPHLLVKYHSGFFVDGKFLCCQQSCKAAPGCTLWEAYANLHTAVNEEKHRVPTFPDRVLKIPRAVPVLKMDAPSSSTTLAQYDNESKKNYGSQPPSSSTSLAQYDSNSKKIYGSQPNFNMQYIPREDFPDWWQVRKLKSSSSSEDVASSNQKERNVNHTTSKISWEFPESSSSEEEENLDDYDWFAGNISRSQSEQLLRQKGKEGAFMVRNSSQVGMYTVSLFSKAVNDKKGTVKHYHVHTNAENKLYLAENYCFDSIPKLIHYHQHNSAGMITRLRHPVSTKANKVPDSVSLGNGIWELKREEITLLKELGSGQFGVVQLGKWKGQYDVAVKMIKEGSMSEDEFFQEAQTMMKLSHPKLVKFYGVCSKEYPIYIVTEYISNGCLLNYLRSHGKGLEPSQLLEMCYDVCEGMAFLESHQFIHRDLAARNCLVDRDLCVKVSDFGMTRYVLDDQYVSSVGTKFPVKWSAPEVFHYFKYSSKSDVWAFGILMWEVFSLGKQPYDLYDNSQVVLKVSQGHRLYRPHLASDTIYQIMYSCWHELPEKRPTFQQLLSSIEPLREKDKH
Description: GSK_PKIS: BMX mean inhibition at 0.1 uM [Nanosyn]
Please state the figure in %; there is no need to write the unit.

Take a look at these entries with their results.
chemical-structure	target-system	inhibition (%)
Cc1cc(-c2ccccn2)cc(C)c1/C=C/c1cncc(-c2nn[nH]n2)c1	Cytoplasmic tyrosine-protein kinase BMX (Homo sapiens) (UniProt P51813)	1.6
CCS(=O)(=O)c1ccc(OC)c(Nc2ncc(-c3cccc(OC)c3)o2)c1	Cytoplasmic tyrosine-protein kinase BMX (Homo sapiens) (UniProt P51813)	-2.1

[Q] Look up and report measured inhibition for this entry: `Nc1nccc(C#Cc2cncnc2Nc2ccc(OCc3cccc(F)c3)c(Cl)c2)n1`
[A] 1.74

[Q] Look up and report measured inhibition for this entry: `[O-][S+]1CCN(Cc2ccc(-c3ccc4ncnc(Nc5ccc(OCc6ccccc6)c(Cl)c5)c4c3)o2)CC1`
[A] 0.31
